biological target: 2-Hydroxyacid oxidase 1 (Mus musculus); assay: Inhibition of glycolate oxidase in mouse Agxt1-/- hepatocytes using glycolate as substrate assessed as reduction in oxalate production after 48 hrs by sulfonated-DCIP dye-based assay; format: cell-based
observed-property: EC50
Just so you know, I need the unit written after the number.

Incoming: State the recorded EC50 for this entry: O=C(O)c1nnsc1Sc1ccc(Cl)cc1
Outgoing: 33 µM

====

Molecular target: 2-Hydroxyacid oxidase 1 (Mus musculus, UniProt Q9WU19)
Sequence (Q9WU19 whole entry): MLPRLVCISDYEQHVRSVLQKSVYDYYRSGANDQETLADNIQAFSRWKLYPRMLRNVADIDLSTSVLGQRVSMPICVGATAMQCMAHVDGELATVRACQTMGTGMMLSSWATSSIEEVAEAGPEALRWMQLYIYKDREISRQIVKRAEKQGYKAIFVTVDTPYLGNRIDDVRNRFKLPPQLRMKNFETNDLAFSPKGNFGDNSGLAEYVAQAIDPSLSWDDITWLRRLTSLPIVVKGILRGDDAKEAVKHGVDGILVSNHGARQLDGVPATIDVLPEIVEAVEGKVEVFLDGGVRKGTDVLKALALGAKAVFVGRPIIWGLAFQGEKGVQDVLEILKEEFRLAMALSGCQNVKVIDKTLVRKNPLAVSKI
Test: Inhibition of glycolate oxidase in mouse Agxt1-/- hepatocytes using glycolate as substrate assessed as reduction in oxalate production after 24 hrs by sulfonated-DCIP dye-based assay
Assay type: cell-based
observed-property: pEC50
Numbers only, as −log10 of the molar value.

Incoming: State the recorded pEC50 for this entry: O=C(O)c1nnsc1Sc1ccc(Cl)cc1
Outgoing: 4.60

====

molecular target: 2-Hydroxyacid oxidase 1 (Mus musculus, UniProt Q9WU19); test: Inhibition of glycolate oxidase in C57BL/6 Agxt1-/- mouse hepatocytes using glycolate as substrate assessed as reduction in oxalate production after 72 hrs; type: cell-based
observed-property: pEC50
Answers are plain numbers, as −log10 of the molar value.

[
  {
    "structure-as-smiles": "O=Cc1ccc(-c2ccc(O)c(C(=O)O)c2)o1",
    "observed-property": "pEC50",
    "numeric-result": 4.95
  }
]

Turning to the following compound.
Incoming: State the recorded pEC50 for this entry: O=C(O)c1cc(-c2ccco2)ccc1O
Outgoing: 5.04

====

target: 2-Hydroxyacid oxidase 1 (Mus musculus); test: Inhibition of glycolate oxidase in mouse Agxt1-/- hepatocytes using glycolate as substrate assessed as reduction in oxalate production after 72 hrs by sulfonated-DCIP dye-based assay; type: cell-based
observed-property: EC50 (µM)
Answers are plain numbers, in µM.

Incoming: State the recorded EC50 for this entry: O=C(O)c1nnsc1Sc1ccc(Cl)cc1
Outgoing: 34

====

target: 2-Hydroxyacid oxidase 1 (Mus musculus); test: Inhibition of glycolate oxidase in C57BL/6 Agxt1-/- mouse hepatocytes using glycolate as substrate assessed as relative oxalate level at 10 uM after 24 hrs; format: cell-based
For each of the compounds below, state its fold change (FC).
Answers are plain numbers.

[
  {
    "structure-as-smiles": "O=C(O)c1cc(-c2ccoc2)ccc1O",
    "fold change (FC)": 0.89
  },
  {
    "structure-as-smiles": "O=C(O)c1cc(-c2ccccc2COc2cc(F)cc(F)c2)ccc1O",
    "fold change (FC)": 0.92
  },
  {
    "structure-as-smiles": "O=C(O)c1ccc(-c2ccsc2)cc1O",
    "fold change (FC)": 0.99
  },
  {
    "structure-as-smiles": "O=C(O)c1ccc(-c2ccc(O)cc2)cc1O",
    "fold change (FC)": 0.82
  },
  {
    "structure-as-smiles": "O=Cc1ccc(-c2ccc(O)cc2)o1",
    "fold change (FC)": 0.32
  },
  {
    "structure-as-smiles": "COC(=O)c1ccc(-c2ccc(C=O)o2)cc1OC",
    "fold change (FC)": 0.9
  }
]

Turning to the following compound.
Incoming: State the recorded fold change (FC) for this entry: O=C(O)c1cc([N+](=O)[O-])c(-c2ccco2)cc1O
Outgoing: 0.86

====

Target: 2-Hydroxyacid oxidase 1 (Mus musculus)
Sequence (whole entry): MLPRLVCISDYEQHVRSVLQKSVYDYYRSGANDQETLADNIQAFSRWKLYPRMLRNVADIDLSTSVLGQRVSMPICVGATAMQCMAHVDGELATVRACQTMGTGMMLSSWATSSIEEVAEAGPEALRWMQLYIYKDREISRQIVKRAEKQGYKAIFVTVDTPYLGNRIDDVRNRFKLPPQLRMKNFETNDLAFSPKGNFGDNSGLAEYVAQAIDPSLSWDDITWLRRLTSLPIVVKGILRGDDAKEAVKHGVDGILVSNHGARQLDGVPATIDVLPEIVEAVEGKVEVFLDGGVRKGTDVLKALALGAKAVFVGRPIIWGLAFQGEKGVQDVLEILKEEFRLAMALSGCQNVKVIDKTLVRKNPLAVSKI
Experiment: Inhibition of glycolate oxidase in C57BL/6 Agxt1-/- mouse hepatocytes using glycolate as substrate assessed as relative oxalate level at 10 uM after 24 hrs
Type: cell-based
Mark criterion met only when fold change (FC) stays strictly below 0.9. Values equal to the cut-off are criterion not met.

These solved cases illustrate the format of a correct answer.
[
  {
    "structure-as-smiles": "COc1ccc(COc2ccc(-c3ccc(O)c(C(=O)O)c3)cc2)cc1",
    "assay-system": "2-Hydroxyacid oxidase 1 (Mus musculus)",
    "class-name": "criterion not met"
  },
  {
    "structure-as-smiles": "COc1cc(-c2ccc(C=O)o2)ccc1C(=O)O",
    "assay-system": "2-Hydroxyacid oxidase 1 (Mus musculus)",
    "class-name": "criterion met"
  },
  {
    "structure-as-smiles": "O=C(O)c1ccc(-c2ccccc2COc2cc(F)cc(F)c2)cc1O",
    "assay-system": "2-Hydroxyacid oxidase 1 (Mus musculus)",
    "class-name": "criterion met"
  },
  {
    "structure-as-smiles": "Cc1ccc(-c2ccc(C(=O)O)c(O)c2)s1",
    "assay-system": "2-Hydroxyacid oxidase 1 (Mus musculus)",
    "class-name": "criterion not met"
  },
  {
    "structure-as-smiles": "O=C(O)c1ccc(-c2ccco2)cc1O",
    "assay-system": "2-Hydroxyacid oxidase 1 (Mus musculus)",
    "class-name": "criterion met"
  }
]

Moving on to the next compound.
Incoming: Does this compound meet the criterion fold change (FC) < 0.9? O=C(O)c1ccc(-c2ccc(O)c(C(=O)O)c2)o1
Outgoing: criterion met

====

For each of the compounds below, state its fold change (FC).
Target: 2-Hydroxyacid oxidase 1 (Mus musculus) (UniProt Q9WU19)
Sequence (whole entry): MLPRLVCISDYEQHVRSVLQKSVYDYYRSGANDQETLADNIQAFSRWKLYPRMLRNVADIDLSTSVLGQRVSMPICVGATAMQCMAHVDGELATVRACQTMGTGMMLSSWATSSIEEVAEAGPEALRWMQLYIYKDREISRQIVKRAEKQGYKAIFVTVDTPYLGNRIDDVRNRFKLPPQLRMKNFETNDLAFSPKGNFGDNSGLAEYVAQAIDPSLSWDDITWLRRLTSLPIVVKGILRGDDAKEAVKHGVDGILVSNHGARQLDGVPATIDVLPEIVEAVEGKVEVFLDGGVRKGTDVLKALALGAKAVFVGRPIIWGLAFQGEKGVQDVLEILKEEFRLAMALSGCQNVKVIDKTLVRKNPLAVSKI
Assay: Inhibition of glycolate oxidase in C57BL/6 Agxt1-/- mouse hepatocytes using glycolate as substrate assessed as relative oxalate level at 10 uM after 24 hrs
Type: cell-based
Answers are plain numbers.

[
  {
    "structure-as-smiles": "O=C(O)c1cc2ccccc2c(/N=N/c2cc(C(F)(F)F)ccc2Cl)c1O",
    "fold change (FC)": 0.91
  }
]

Report fold change (FC) for each item below.
1. O=C(O)c1ccc(-c2ccc(CO)o2)cc1O
2. O=Cc1ccc(-c2ccc(C(=O)O)c(O)c2)o1
3. Nc1ccc(O)c(C(=O)O)c1

Outgoing:
0.88
0.88
0.88

Report fold change (FC) for each item below.
1. O=Cc1ccc(-c2ccc(C(=O)O)c(O)c2)s1
2. Cn1nccc1-c1ccc(C(=O)O)c(O)c1

Outgoing:
1: 1; 2: 0.93

====

target: 2-Hydroxyacid oxidase 1 (Mus musculus) (UniProt Q9WU19); experiment: Inhibition of mouse recombinant glycolate oxidase expressed in Escherichia coli at 25 uM using glycolate as substrate after 1 min by sulfonated DCIP dye-based assay relative to control
For each of the compounds below, state its inhibition.
Numbers only, in %.

[
  {
    "structure-as-smiles": "Cc1ccc(-c2ccc(C(=O)O)c(O)c2)s1",
    "assay-system": "2-Hydroxyacid oxidase 1 (Mus musculus) (UniProt Q9WU19)",
    "unit-of-measurement": "%",
    "inhibition": 28.7
  },
  {
    "structure-as-smiles": "O=C(O)c1cc2ccccc2c(/N=N/c2c(O)cc(S(=O)(=O)O)c3ccccc23)c1O",
    "assay-system": "2-Hydroxyacid oxidase 1 (Mus musculus) (UniProt Q9WU19)",
    "unit-of-measurement": "%",
    "inhibition": 75.1
  }
]

Turning to the following compound.
Incoming: Param readout= inhibition; system= 2-Hydroxyacid oxidase 1 (Mus musculus) (UniProt Q9WU19); entry= O=C(O)c1ccc(-c2ccc(O)c(C(=O)O)c2)o1 ; returns value.
Outgoing: 0

Data provenance: ChEMBL document CHEMBL4229456
